target: FLK-1 receptor (Mus musculus); construct: expressed in transfected cells; host or cells: NIH3T3 C7#3; assay: FLK-1 ELISA (kinase activity of the FLK-1 receptor in FLK-1/NIH3T3 cells, VEGF stimulated); format: cell-based
Sequence (P35918 20-1345): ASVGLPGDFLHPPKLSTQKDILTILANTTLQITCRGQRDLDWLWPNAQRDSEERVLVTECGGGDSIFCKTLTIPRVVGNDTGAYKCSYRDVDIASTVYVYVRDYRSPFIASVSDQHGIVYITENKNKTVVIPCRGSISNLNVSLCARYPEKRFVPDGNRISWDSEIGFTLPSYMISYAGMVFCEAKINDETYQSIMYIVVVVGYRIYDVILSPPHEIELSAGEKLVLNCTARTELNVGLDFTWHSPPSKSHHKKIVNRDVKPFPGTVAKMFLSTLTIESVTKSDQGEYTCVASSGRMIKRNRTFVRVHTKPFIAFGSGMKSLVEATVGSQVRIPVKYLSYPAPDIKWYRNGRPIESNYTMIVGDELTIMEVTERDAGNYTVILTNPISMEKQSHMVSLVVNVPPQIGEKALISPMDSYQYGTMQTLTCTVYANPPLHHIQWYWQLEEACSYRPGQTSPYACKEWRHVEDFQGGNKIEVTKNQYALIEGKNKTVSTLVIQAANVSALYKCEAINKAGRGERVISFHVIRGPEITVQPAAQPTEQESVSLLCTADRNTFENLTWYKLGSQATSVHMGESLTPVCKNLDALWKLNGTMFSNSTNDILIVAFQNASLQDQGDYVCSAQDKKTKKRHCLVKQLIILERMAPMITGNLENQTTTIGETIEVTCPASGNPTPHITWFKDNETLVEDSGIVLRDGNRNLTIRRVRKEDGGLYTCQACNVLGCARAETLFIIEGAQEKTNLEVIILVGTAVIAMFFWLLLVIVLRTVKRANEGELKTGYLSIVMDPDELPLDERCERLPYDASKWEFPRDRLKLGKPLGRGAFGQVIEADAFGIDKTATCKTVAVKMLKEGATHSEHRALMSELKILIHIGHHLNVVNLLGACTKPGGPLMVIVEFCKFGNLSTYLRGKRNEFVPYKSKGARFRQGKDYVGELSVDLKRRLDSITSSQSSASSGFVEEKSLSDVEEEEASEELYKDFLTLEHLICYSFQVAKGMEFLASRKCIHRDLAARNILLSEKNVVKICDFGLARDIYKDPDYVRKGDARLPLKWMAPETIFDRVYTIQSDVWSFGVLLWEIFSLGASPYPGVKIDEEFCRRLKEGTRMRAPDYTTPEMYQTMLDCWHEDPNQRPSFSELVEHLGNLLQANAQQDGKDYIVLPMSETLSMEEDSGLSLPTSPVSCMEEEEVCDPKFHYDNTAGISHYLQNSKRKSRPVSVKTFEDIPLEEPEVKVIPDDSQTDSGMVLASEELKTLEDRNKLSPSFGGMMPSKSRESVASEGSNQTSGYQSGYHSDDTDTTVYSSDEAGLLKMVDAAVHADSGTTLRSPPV
Task for the reader: assign each of the following molecules its reported Fik Kinase %Inhibition.

Exercise: Give reported Fik Kinase %Inhibition for CCc1c(C)[nH]c(C=C2C(=O)Nc3ccc(CCCl)cc32)c1C (FLK-1 receptor (Mus musculus))
Solution: 18.0%

Exercise: Fill: Fik Kinase %Inhibition (FLK-1 receptor (Mus musculus)) for this molecule CNS(=O)(=O)c1ccc2c(c1)C(=Cc1cc(C(F)(F)F)ccc1F)C(=O)N2
Solution: 13.5%

Exercise: Write down the reported Fik Kinase %Inhibition (system: FLK-1 receptor (Mus musculus)) of O=C1Nc2c(Br)cc(Br)cc2C1=Cc1ccccc1
Solution: 5.6%

Exercise: Write down the reported Fik Kinase %Inhibition (system: FLK-1 receptor (Mus musculus)) of CNS(=O)(=O)c1ccc2c(c1)C(=Cc1ccc(O)c(Br)c1)C(=O)N2
Solution: -11.6%

Exercise: Write Fik Kinase %Inhibition of COc1cc(C=C2C(=O)Nc3ccc(CCCl)cc32)cc(OC)c1OC ; system used: FLK-1 receptor (Mus musculus)
Solution: 7.4%

Exercise: Report Fik Kinase %Inhibition from FLK-1 receptor (Mus musculus) testing of O=C1Nc2c(Br)cc(Br)cc2C1=Cc1ccc(Br)o1
Solution: -7.1%

Exercise: Quote FLK-1 receptor (Mus musculus) Fik Kinase %Inhibition for entry Cc1c(Br)ccc2c1C(=Cc1c(F)cccc1C(F)(F)F)C(=O)N2 .
Solution: 14.5%

Exercise: For FLK-1 receptor (Mus musculus), give the measured Fik Kinase %Inhibition of the entry CNS(=O)(=O)c1ccc2c(c1)C(=Cc1cc(C)c(OC)c(C)c1)C(=O)N2
Solution: 17.9%

Exercise: For FLK-1 receptor (Mus musculus), give the measured Fik Kinase %Inhibition of the entry COC(=O)c1[nH]c(C)c(C=C2C(=O)Nc3c(Br)cc(Br)cc32)c1C(=O)OC
Solution: 16.2%

Exercise: Fill in Fik Kinase %Inhibition for Cc1c(Br)ccc2c1C(=Cc1ccc(F)cc1)C(=O)N2 tested with FLK-1 receptor (Mus musculus).
Solution: -2.3%

Exercise: Retrieve Fik Kinase %Inhibition on FLK-1 receptor (Mus musculus); query O=C1Nc2ccc(I)cc2C1=Cc1cccs1
Solution: -8.8%

Exercise: State measured Fik Kinase %Inhibition of the molecule CC(C)(C)c1ccc(C=C2C(=O)Nc3ccc(CCCl)cc32)cc1 with FLK-1 receptor (Mus musculus).
Solution: 10.8%

Exercise: State measured Fik Kinase %Inhibition of the molecule O=C1Nc2c(Br)cc(Br)cc2C1=Cc1ncc[nH]1 with FLK-1 receptor (Mus musculus).
Solution: -0.6%

Exercise: GET Fik Kinase %Inhibition | system: FLK-1 receptor (Mus musculus) | item: COc1cc(OC)c(C=C2C(=O)Nc3ccc(S(=O)(=O)Nc4ccc(C(F)(F)F)cc4)cc32)c(OC)c1
Solution: 17.1%

Exercise: Answer with Fik Kinase %Inhibition of O=C1Nc2ccc(I)cc2C1=Cc1ccc(F)cc1C(F)(F)F measured for FLK-1 receptor (Mus musculus).
Solution: 11.2%

Exercise: For FLK-1 receptor (Mus musculus), give Fik Kinase %Inhibition of the listed molecule: CNS(=O)(=O)c1ccc2c(c1)C(=Cc1c[nH]cn1)C(=O)N2
Solution: 13.6%

Exercise: Write down the reported Fik Kinase %Inhibition (system: FLK-1 receptor (Mus musculus)) of CNS(=O)(=O)c1ccc2c(c1)C(=Cc1c(Br)ccc(OC)c1O)C(=O)N2
Solution: -11.3%

Exercise: For FLK-1 receptor (Mus musculus), give the measured Fik Kinase %Inhibition of the entry CC(C)(C)c1cc(C=C2C(=O)Nc3c(Br)cc(Br)cc32)cc(Br)c1OCc1ccccc1
Solution: -10.0%

Exercise: Write down measured Fik Kinase %Inhibition (FLK-1 receptor (Mus musculus)) for this molecule. O=C1Nc2c(Br)cc(Br)cc2C1=Cc1ccc(F)cc1F
Solution: 9.6%
